This collection of values is drawn from ChEMBL document CHEMBL1149126.

The entries below are paired with their reported Ki.
# TARGET_OR_TEST_SYSTEM: GABA-A receptor; alpha-1/beta-3/gamma-2 (Homo sapiens, UniProt P14867+P18507+P28472)
# Sequence (P14867 whole entry): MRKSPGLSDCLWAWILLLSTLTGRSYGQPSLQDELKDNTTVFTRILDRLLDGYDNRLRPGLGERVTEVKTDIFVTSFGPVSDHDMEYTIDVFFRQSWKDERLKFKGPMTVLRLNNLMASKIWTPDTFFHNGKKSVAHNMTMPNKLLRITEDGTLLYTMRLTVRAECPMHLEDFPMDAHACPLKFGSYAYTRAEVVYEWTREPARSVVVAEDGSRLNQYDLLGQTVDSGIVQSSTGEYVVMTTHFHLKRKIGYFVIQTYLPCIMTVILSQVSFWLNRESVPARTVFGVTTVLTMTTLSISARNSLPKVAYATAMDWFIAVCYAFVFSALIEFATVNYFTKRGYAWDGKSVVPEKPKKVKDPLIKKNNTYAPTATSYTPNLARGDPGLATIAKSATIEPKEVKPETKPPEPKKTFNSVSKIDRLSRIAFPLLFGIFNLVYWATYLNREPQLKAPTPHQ
# Sequence (P18507 whole entry): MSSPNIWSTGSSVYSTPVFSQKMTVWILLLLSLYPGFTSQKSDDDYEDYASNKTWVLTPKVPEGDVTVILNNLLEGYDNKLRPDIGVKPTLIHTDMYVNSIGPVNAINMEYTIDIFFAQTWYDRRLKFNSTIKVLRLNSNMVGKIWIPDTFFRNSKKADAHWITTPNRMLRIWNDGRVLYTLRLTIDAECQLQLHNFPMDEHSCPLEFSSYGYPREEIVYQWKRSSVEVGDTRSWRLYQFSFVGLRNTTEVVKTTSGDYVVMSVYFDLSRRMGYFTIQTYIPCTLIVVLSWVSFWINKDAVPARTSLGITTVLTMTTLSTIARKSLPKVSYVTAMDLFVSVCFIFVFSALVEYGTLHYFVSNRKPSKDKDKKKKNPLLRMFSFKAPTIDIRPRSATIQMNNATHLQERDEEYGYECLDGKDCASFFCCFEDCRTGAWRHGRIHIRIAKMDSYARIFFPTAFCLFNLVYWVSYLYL
# Sequence (P28472 whole entry): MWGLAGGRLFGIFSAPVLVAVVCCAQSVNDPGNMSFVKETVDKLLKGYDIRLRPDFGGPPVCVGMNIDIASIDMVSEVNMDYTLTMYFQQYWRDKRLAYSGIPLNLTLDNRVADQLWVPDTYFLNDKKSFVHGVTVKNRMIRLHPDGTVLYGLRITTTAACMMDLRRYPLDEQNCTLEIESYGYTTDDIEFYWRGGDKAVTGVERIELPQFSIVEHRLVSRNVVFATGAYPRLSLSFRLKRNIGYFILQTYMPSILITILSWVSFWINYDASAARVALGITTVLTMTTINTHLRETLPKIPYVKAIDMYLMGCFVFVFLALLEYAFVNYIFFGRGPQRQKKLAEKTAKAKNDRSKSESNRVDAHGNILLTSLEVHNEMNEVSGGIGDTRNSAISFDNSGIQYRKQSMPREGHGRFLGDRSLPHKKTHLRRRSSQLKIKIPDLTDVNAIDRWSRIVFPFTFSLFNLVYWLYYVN
# TEST_DESCRIPTION: Binding affinity for human GABA-A receptor alpha-1-beta-3-gamma-2 subunits in L(tk-) cells
REPORTED_ENDPOINT: Ki (nM)

>>> recorded_value("c1ccc(-c2nnc3c4ccccc4c(OCc4cccnn4)nn23)cc1")
0.82
>>> recorded_value("Cc1ccc2c(c1)c(OCc1ccccn1)nn1c(-c3ccccc3)nnc21")
2.2
>>> recorded_value("CN(C)Cc1nnc2c3ccccc3c(OCc3ccccn3)nn12")
140
>>> recorded_value("CC(C)c1nnc2c3ccccc3c(OCc3ccccn3)nn12")
160
>>> recorded_value("Cc1cccc(COc2nn3c(-c4ccccc4)nnc3c3ccccc23)n1")
8.4
>>> recorded_value("c1ccc(Cc2nnc3c4ccccc4c(OCc4ccccn4)nn23)cc1")
260
>>> recorded_value("Clc1ccc(COc2nn3c(-c4ccccc4)nnc3c3ccccc23)cc1")
480
>>> recorded_value("CN(Cc1ccccc1)c1nn2c(-c3ccccc3)nnc2c2ccccc12")
500
